Recorded LD50 for the following compounds
- procedure.details: Acute toxicity, LD50 in mice intravenously
- settings: mouse, in vivo, iv, read-out: LD₅₀ (Mice; i.v.)

- compound: "CC(CN1CCCC1)C(=O)c1ccc(C(F)(F)F)cc1 (stereo not drawn)"
  LD50: "61.1 mg/kg"
- compound: "COc1ccc(C(=O)C(C)CN2CCCC2)c2c1CCCC2 (stereo not drawn)"
  LD50: "38.1 mg/kg"
- compound: "CCC(CN1CCCC1)C(=O)c1ccc(OC)c2c1CCCC2 (stereo not drawn)"
  LD50: "35.4 mg/kg"

Data origin: patent EP0200942B1
